- TEST_METHOD_NOTES: Lipophilicity by reversed-phase TLC on RP-18 WF254s plates with standardization
- CONDITION_INFO: isopropanol/water, molar fraction for which lipophilicity equals 0
MEASURE: φ 0 (intercept of the trend line with abscissa axis)

| MOLECULE | REPORTED_VALUE |
| --- | --- |
| O=c1ccc2ccc(O)cc2o1 | 0.309 |
| CC(=O)c1c(C)cc2oc(=O)cc(C)c2c1O [Compound 3, 6-acetyl-5-hydroxy-4,7-dimethylcoumarin] | 0.479 |
| Cc1cc(OCC#N)c2c(C)cc(=O)oc2c1 | 0.434 |
| CC(=O)Oc1cc(C)cc2oc(=O)cc(C)c12 | 0.424 |
| CC(=O)c1cc2c(C)cc(=O)oc2cc1O [Compound 11, 6-Acetyl-7-hydroxy-4-methylcoumarin] | 0.362 |
| N#CCOc1cc(=O)oc2ccccc12 | 0.401 |
| CC(=O)c1c(C)cc2oc(=O)cc(C)c2c1OCC#N | 0.383 |
| Cc1cc(=O)oc2cc(O)ccc12 [Compound 8, 7-hydroxy-4-methylcoumarin] | 0.372 |
